- experimental_details: Vorinostat serum pharmacokinetics, cycle 1
- details: human, serum, oral
measurement_name: AUC(0-inf)

## Task Entry under review: O=C(CCCCCCC(=O)Nc1ccccc1)NO [vorinostat, suberoylanilide hydroxamic acid] . Reported AUC(0-inf)?
## Result 930 to 5780 ng·h/mL

----------
- experimental_details: Vorinostat serum pharmacokinetics, cycle 1
- details: human, serum, oral
measurement_name: half-life

## Task Entry under review: O=C(CCCCCCC(=O)Nc1ccccc1)NO [vorinostat, suberoylanilide hydroxamic acid] . Reported half-life?
## Result 1.2 to 10.1 h

----------
- experimental_details: Vorinostat serum pharmacokinetics, cycle 1
- details: human, serum, po, 230 mg/m2
measurement_name: AUC(0-inf) (ng·h/mL)
Report the figure in ng·h/mL without appending any unit label.

## Task Entry under review: O=C(CCCCCCC(=O)Nc1ccccc1)NO [vorinostat, suberoylanilide hydroxamic acid] . Reported AUC(0-inf)?
## Result 1670

----------
- experimental_details: Isotretinoin pharmacokinetics, single sample on cycle 1 day 14
- details: human, serum, oral, 80 mg/m^2/dose, Median serum concentration, 4 hr after the last dose of isotretinoin in cycle 1 (80 mg/m^2/dose twice daily); 12 patients
measurement_name: concentration at 4 h

## Task Entry under review: CC1=C(/C=C/C(C)=C/C=C/C(C)=C\C(=O)O)C(C)(C)CCC1 [isotretinoin, cis-13-retinoic acid] . Reported concentration at 4 h?
## Result 830 ng/mL

----------
- experimental_details: Vorinostat serum pharmacokinetics, cycle 1
- details: human, serum, po, 180 mg/m2
measurement_name: AUC(0-inf)
Please format your answer as a value with the unit trailing.

## Task Entry under review: O=C(CCCCCCC(=O)Nc1ccccc1)NO [vorinostat, suberoylanilide hydroxamic acid] . Reported AUC(0-inf)?
## Result 1350 ng·h/mL

----------
- experimental_details: Vorinostat serum pharmacokinetics, cycle 1
- details: human, serum, po, 430 mg/m2
measurement_name: AUC(0-inf) (µg·h/mL)
Report the figure in µg·h/mL without appending any unit label.

## Task Entry under review: O=C(CCCCCCC(=O)Nc1ccccc1)NO [vorinostat, suberoylanilide hydroxamic acid] . Reported AUC(0-inf)?
## Result 3.25

----------
- experimental_details: Isotretinoin pharmacokinetics, single sample on cycle 1 day 14
- details: human, serum, oral, 80 mg/m^2/dose, Serum concentration, range, 4 hr after the last dose of isotretinoin in cycle 1 (80 mg/m^2/dose twice daily); 12 patients
measurement_name: concentration at 4 h

## Task Entry under review: CC1=C(/C=C/C(C)=C/C=C/C(C)=C\C(=O)O)C(C)(C)CCC1 [isotretinoin, cis-13-retinoic acid] . Reported concentration at 4 h?
## Result 190 to 1400 ng/mL

----------
- experimental_details: Vorinostat serum pharmacokinetics, cycle 1
- details: human, serum, po
measurement_name: AUC(0-inf) (ng·h/mL)
Report the figure in ng·h/mL without appending any unit label.

## Task Entry under review: O=C(CCCCCCC(=O)Nc1ccccc1)NO [vorinostat, suberoylanilide hydroxamic acid] . Reported AUC(0-inf)?
## Result 2170

----------
- experimental_details: Vorinostat serum pharmacokinetics, cycle 1
- details: human, serum, po, 430 mg/m2
measurement_name: Cmax (ng/mL)
Report the figure in ng/mL without appending any unit label.

## Task Entry under review: O=C(CCCCCCC(=O)Nc1ccccc1)NO [vorinostat, suberoylanilide hydroxamic acid] . Reported Cmax?
## Result 587

----------
- experimental_details: Vorinostat serum pharmacokinetics, cycle 1
- details: human, serum, oral
measurement_name: Cmax

## Task Entry under review: O=C(CCCCCCC(=O)Nc1ccccc1)NO [vorinostat, suberoylanilide hydroxamic acid] . Reported Cmax?
## Result 158 to 980 ng/mL
